What herbicidal activity STEME was measured for each of the following?
Test system: STEME
assay.details: Post-emergence herbicidal action
Assay type: in vivo, Stellaria media
measurement.conditions: 80 g/ha, rated visually after about 3 weeks vs untreated controls
Numbers only, in %.

- compound: "Cn1nnnc1NC(=O)c1ccc(C(F)F)c2c1OCS2(=O)=O"
  unit.label: "%"
  quantitative.readout: 100
- compound: "CCn1nnnc1NC(=O)c1ccc(C(F)(F)F)c2c1OC[S+]2[O-] (stereo not drawn)"
  unit.label: "%"
  quantitative.readout: 100
- compound: "Cn1nnnc1NC(=O)c1ccc(C(F)F)c2c1OC[S+]2[O-] (stereo not drawn)"
  unit.label: "%"
  quantitative.readout: 100
- compound: "CC1Oc2c(C(=O)Nc3nnnn3C)ccc(C(F)(F)F)c2S1(=O)=O (stereo not drawn)"
  unit.label: "%"
  quantitative.readout: 100
- compound: "CSc1ccc(C(=O)Nc2nnnn2C)c2c1OC(F)(F)O2"
  unit.label: "%"
  quantitative.readout: 80

Report herbicidal activity STEME for every entry below.
1. CCn1nnnc1NC(=O)c1ccc(C(F)(F)F)c2c1OCS2
2. Cc1ccc(C(=O)Nc2nnnn2C)c2c1S(=O)(=O)CO2
3. Cn1nnnc1NC(=O)c1ccc(C(F)(F)F)c2c1OC[S+]2[O-] (stereo not drawn)
4. CCn1nnnc1NC(=O)c1ccc(C(F)F)c2c1OCS2

Result block:
100
90
100
90
